- SYSTEM_NAME: FAD-linked sulfhydryl oxidase ALR (Homo sapiens)
- ASSAY: ALR-catalysed DTT oxidation blockers – biochemical, H2O2 detection, HRP-luminol luminescence, single point, primary screen (AID 485317)
- PROTOCOL_CONDITIONS: purified ALR, concentration not given here
Out of some 290,000 compounds screened, about 11,000 (3.8%) were called active.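 How the source made its calls: active means mean replicate inhibition above about 79%, with every replicate also reaching it (limit read from the data); inconclusive means only one of the two criteria met; inactive means mean below limit and not every replicate reaching it.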 For the sample, actives were picked, then their nearest neighbours and some compounds at random.
Classes to choose from: yes = active, no = inactive

Task: Recorded test outcome, item COc1ccc(S(=O)(=O)N2CCN(C(C)C(=O)Nc3ccc(C(C)C)cc3)CC2)cc1 (stereo not given)
Result: no

Task: Recorded test outcome, item "O=C(CN1CCOc2ccccc21)N1CCC(Cc2ccccc2)CC1"
Result: yes

Task: Recorded test outcome, item O=C(NCc1cccc(Cl)c1)C1CCC(=O)N(C2CC2)C1 (stereo not given)
Result: no

Task: Recorded test outcome, item "O=C(CSc1nc2ccccc2c(=O)n1CCCO)NC1CC1"
Result: no

Task: Recorded test outcome, item CCOC(=O)c1ccc(NC2Nc3cc(C)nn3S2)cc1 (stereo not given)
Result: no

Task: Recorded test outcome, item "Cc1ccc(CC(=O)N(C)CC(=O)N(CC(C)C)c2c(N)n(CC(C)C)c(=O)[nH]c2=O)cc1C"
Result: no

Task: Recorded test outcome, item "CC(=O)NCCNC(=O)c1cc(-c2cccc3ccccc23)nc2ccccc12"
Result: no

Task: Recorded test outcome, item Cc1ccc(NC(=O)C(c2ccccc2)N2CCN(C(=O)c3ccco3)CC2)cc1 (stereo not given)
Result: no

Task: Recorded test outcome, item "O=C1C=C(c2cccc(Cl)c2O)C[C@@H](c2ccc(F)cc2)C1"
Result: no

Task: Recorded test outcome, item "CC1(C)CC(=O)C(CC(=O)N2CCC(Cc3ccccc3)CC2)C(=O)C1"
Result: no
